# Assay Comment: Thermostability, ProteoStat Thermal Shift Stability Kit, temperature of aggregation
# Assay type: physicochemical
# Assay Setup: pH 7.1; heated 25° C. to 95° C.; NS = protein not soluble
Tagg (pH 7.1) for assorted molecules

Molecule	Tagg (pH 7.1)
SEQID-00622: protein of the 168 nutritive polypeptide library (protein, listed as Oryza sativa, subsp. japonica, protein of the 168 nutritive polypeptide library) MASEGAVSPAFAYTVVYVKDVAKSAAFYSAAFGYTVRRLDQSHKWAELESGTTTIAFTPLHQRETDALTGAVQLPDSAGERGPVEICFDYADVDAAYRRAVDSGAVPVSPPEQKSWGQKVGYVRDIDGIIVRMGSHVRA	95
SEQID-00511: protein of the 168 nutritive polypeptide library (protein, Arthrospira platensis C1, protein of the 168 nutritive polypeptide library) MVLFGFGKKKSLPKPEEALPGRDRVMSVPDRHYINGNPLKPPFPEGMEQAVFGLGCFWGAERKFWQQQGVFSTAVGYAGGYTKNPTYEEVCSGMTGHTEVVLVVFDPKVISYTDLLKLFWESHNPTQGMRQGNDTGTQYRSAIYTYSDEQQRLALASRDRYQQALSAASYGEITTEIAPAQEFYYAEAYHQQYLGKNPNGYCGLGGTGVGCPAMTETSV	42
SEQID-00100: nutritive polypeptide (protein, listed as Lactobacillus acidophilus) MSEEEIFNKIKDLIADNFEVDKDSITENTNFMNDLDADSIDLVEFILQLEDEFGAEIPDDEAEKIKTVGDAVSYIKSHQG	>95
SEQID-00098: nutritive polypeptide (protein, listed as Lactococcus lactis) MAVFEKVQDIIVDELGKEKEEVTLETSFEELDADSLDLFQIINDIEDEFDVEVDTEADMKTVADLVKYVENNK	>95
SEQID-00485: nutritive polypeptide naturally produced in Chickpea, recombinantly expressed in E. coli (protein, listed as Cicer arietinum) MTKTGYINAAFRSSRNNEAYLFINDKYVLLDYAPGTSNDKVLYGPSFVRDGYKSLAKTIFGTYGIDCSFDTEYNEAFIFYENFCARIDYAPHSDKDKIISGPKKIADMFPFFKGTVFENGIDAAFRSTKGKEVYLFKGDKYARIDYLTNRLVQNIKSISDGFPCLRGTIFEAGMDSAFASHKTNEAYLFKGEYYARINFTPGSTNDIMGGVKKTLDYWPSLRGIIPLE	36

Source listed as patent US20260069656A1.
